target: Human Polθ polymerase domain (aa1820-2590) (Homo sapiens); construct: Human Polθ polymerase domain (aa1820-2590) was expressed in E. coli; made in house; host or cells: E. coli; assay: Polθ Polymerase Domain Kinact/KI Assay (PicoGreen); format: biochemical; conditions: 0.8 nM Polθ, 100 nM DNA substrate, kobs vs [I] fit for 2-step covalent inhibitor
Field: Kinact/Kl. Provide a value for each of the molecules that follow.
One number for each entry, in M⁻¹ s⁻¹.

Tell me measured Kinact/Kl for C=CC(=O)N1Cc2nc(CN3C[C@H]4CC(=O)N(c5cc(C(F)(F)F)cc(C)n5)[C@@H]4C(=O)N(C)c4cccc(Cl)c43)cn2C[C@H]1C (racemic) [Example 143b] please.
2.32e+06

For the molecule C=CC(=O)Nc1ccc(CN2C[C@H]3CC(=O)N(c4cc(C(F)(F)F)cc(C)n4)[C@@H]3C(=O)N(C)c3cccc(Cl)c32)cn1 [Example 282] , give its reported Kinact/Kl.
870000

Further cases:
Write down Kinact/Kl measured for item C=CC(=O)N1CCN2C[C@@H](CN3C[C@H]4CC(=O)N(c5cc(C(F)(F)F)cc(C)n5)[C@@H]4C(=O)N(C)c4cccc(F)c43)N(C)CC2C1 (single isomer, unassigned) [Example 140b]
230000

###

Target: Human Polθ polymerase domain (aa1820-2590) (Homo sapiens, UniProt O75417)
Construct: Human Polθ polymerase domain (aa1820-2590) was expressed in E. coli; made in house; host or cells: E. coli
Sequence (O75417 1820-2590): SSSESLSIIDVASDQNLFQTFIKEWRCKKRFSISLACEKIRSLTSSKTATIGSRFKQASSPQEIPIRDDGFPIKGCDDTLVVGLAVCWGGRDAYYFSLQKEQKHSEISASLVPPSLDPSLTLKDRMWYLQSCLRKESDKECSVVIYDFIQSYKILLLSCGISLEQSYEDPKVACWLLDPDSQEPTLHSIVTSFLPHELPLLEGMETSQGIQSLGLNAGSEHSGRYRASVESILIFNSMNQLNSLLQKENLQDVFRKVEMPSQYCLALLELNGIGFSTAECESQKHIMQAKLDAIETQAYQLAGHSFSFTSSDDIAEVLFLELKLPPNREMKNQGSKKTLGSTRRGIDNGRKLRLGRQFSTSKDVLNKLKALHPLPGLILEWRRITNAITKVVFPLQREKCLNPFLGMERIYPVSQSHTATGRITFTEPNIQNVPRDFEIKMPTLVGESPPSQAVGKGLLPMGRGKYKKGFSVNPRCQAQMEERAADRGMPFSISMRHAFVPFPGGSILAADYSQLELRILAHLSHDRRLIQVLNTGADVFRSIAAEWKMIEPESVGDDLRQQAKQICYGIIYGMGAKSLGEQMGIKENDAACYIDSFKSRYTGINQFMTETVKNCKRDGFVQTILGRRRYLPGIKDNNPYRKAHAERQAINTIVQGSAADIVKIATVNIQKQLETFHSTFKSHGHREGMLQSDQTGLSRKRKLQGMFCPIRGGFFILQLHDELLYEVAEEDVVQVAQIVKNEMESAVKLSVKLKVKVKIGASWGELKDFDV
Test: Polθ Polymerase Domain Kinact/KI Assay (PicoGreen)
Type: biochemical
Conditions: 0.8 nM Polθ, 100 nM DNA substrate, kobs vs [I] fit for 2-step covalent inhibitor
Answer each item with its documented Kinact/Kl.
Give bare numbers, in M⁻¹ s⁻¹.

Reference set, count: 5
// Input: C=CC(=O)N1CCN(CCCN2C[C@H]3CC(=O)N(c4cc(C(F)(F)F)cc(C)n4)[C@@H]3C(=O)N(C)c3cccc(Cl)c32)CC1CC#N (mixture of isomers) [Example 267b] . Output its Kinact/Kl only.
3.03e+06

For the compound C=C(CN(C)C)C(=O)N1CC(OCCCN2C[C@H]3CC(=O)N(c4cc(C(F)(F)F)cc(C)n4)[C@@H]3C(=O)N(C)c3ccccc32)C1 [Example 81] , give its reported Kinact/Kl.
2.03e+06

# return recorded Kinact/Kl for entry C=CC(=O)N1Cc2nc(CN3C[C@H]4CC(=O)N(c5cc(C(F)(F)F)cc(C)n5)[C@@H]4C(=O)N(C)c4cccc(C)c43)ccc2C1CO (some centres unmarked) [Example 238]
740000

Item Cc1cc(C(F)(F)F)cc(N2C(=O)C[C@@H]3CN(Cc4cccc(C5CN(C(=O)/C=C/CN(C)C)C5)c4)c4c(F)cccc4N(C)C(=O)[C@H]32)n1 [Example 147] : provide Kinact/Kl
610000

Quickly give me recorded Kinact/Kl for C=CC(=O)N1CCN2CCN(C(=O)CN3C[C@H]4CC(=O)N(c5cc(C(F)(F)F)cc(C)n5)[C@@H]4C(=O)N(C)c4cccc(F)c43)CC2C1 (mixture of isomers) [Example 76a]
220000

Would you mind giving Kinact/Kl for every compound in the list below?
1. C=CC(=O)NC1CCN(CCN2C[C@H]3CC(=O)N(c4cc(C(F)(F)F)cc(C)n4)[C@@H]3C(=O)N(C)c3cccc(Cl)c32)CC1(F)F (mixture of isomers) [Example 257a]
2. C=CC(=O)N1CCOc2ccc(CN3C[C@H]4CC(=O)N(c5cc(C(F)(F)F)cc(C)n5)[C@@H]4C(=O)N(C)c4cccc(Cl)c43)cc21 [Example 250]
3. Cc1cc(C(F)(F)F)cc(N2C(=O)C[C@@H]3CN(Cc4ccc5c(c4)CN(C(=O)/C=C/CN(C)C)C5CC#N)c4c(Cl)cccc4N(C)C(=O)[C@H]32)n1 (single isomer, unassigned) [Example 310b]
4. C=CC(=O)N1Cc2nc(CN3C[C@H]4CC(=O)N(c5cc(C(F)(F)F)cc(C)n5)[C@@H]4C(=O)N(C)c4cccc(Cl)c43)ccc2C1CO (some centres unmarked) [Example 239]
5. C=C(CN(C)C)C(=O)N1CC(CC(F)CCN2C[C@H]3CC(=O)N(c4cc(C(F)(F)F)cc(C)n4)[C@@H]3C(=O)N(C)c3cccc(Cl)c32)C1 (some centres unmarked) [Example 301]
6. C=CC(=O)N1CC(n2ccc(CN3C[C@H]4CC(=O)N(c5cc(C(F)(F)F)cc(C)n5)[C@@H]4C(=O)N(C)c4cc(F)ccc43)n2)C1 [Example 41]

["2.17e+06", 530000, "1.46e+06", 730000, "1.78e+06", "1.38e+06"]

###

Biological target: Human Polθ polymerase domain (aa1820-2590) (Homo sapiens, UniProt O75417)
Construct: Human Polθ polymerase domain (aa1820-2590) was expressed in E. coli; made in house; host or cells: E. coli
Sequence (O75417 1820-2590): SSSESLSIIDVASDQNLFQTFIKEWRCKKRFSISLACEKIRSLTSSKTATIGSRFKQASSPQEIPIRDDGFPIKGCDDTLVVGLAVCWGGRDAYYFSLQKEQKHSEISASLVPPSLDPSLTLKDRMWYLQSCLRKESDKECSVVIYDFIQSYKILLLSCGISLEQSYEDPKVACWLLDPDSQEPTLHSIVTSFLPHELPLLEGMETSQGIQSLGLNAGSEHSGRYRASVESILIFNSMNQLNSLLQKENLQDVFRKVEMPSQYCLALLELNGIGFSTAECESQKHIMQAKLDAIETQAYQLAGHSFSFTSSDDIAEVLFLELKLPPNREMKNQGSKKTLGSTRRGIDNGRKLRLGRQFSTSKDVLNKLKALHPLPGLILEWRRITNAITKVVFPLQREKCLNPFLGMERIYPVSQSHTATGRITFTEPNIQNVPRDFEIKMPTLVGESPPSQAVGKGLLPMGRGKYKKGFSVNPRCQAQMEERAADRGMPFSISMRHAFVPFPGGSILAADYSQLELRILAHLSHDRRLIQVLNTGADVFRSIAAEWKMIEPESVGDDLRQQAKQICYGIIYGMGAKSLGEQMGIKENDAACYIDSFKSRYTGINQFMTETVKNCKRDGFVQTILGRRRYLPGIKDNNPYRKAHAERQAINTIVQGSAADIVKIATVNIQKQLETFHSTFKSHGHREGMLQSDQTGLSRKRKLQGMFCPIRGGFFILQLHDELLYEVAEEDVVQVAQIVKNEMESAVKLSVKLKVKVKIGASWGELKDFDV
Assay: Polθ Polymerase Domain Kinact/KI Assay (PicoGreen)
Assay type: biochemical
Conditions: 0.8 nM Polθ, 100 nM DNA substrate, kobs vs [I] fit for 2-step covalent inhibitor
Field: Kinact/Kl. Provide a value for each of the molecules that follow.
Numbers only, in M⁻¹ s⁻¹.

Some entries whose results are on file:
For the molecule C=C(CN(C)C)C(=O)N1CC(c2cc(CN3C[C@H]4CC(=O)N(c5cc(C(F)(F)F)cc(C)n5)[C@@H]4C(=O)N(C)c4cccc(C)c43)ccc2F)C1 , give its measured Kinact/Kl value.
1.41e+06

Note down Kinact/Kl recorded for C=CC(=O)N1C[C@H]2CN(CCN3C[C@H]4CC(=O)N(c5cc(C(F)(F)F)cc(C)n5)[C@@H]4C(=O)N(C)c4cccc(F)c43)CC[C@H]2C1 (single isomer, unassigned) [Example 25b]
250000

Return Kinact/Kl (reported value) for this molecule: C=CC(=O)N1CC(N(C)CCCN2C[C@H]3CC(=O)N(c4cc(C(F)(F)F)cc(C)n4)[C@@H]3C(=O)N(C)c3cccc(Cl)c32)C1
1.08e+06

Complete the entry with Kinact/Kl for C=CC(=O)N1CC2(C1)NCCN(CCN1C[C@H]3CC(=O)N(c4cc(C(F)(F)F)cc(C)n4)[C@@H]3C(=O)N(C)c3cccc(F)c31)[C@H]2C (racemic) [Example 34a]
1.2e+06

Continuing:
Retrieve Kinact/Kl measured for C=CC(=O)N1C[C@H]2C[C@@H]1CN2CCN1C[C@H]2CC(=O)N(c3cc(C(F)(F)F)cc(C)n3)[C@@H]2C(=O)N(C)c2cccc(C)c21 and print it.
1.06e+06
